Values were extracted from ChEMBL document CHEMBL1157606.

# Tested on: Hepatocyte
# procedureDetails: Hepatoprotective activity in ddY mouse primary cultured hepatocytes assessed as inhibition of D-galactosamine-induced cytotoxicity after 44 hrs by MTT assay
# Assay type: functional, cell-based
metricName: IC50 (µM)
Answers are plain numbers, in µM.

compound	quantityUnit	IC50
C[C@@H]1O[C@@H](O[C@@H]2[C@@H](O)[C@H](OCCc3ccc(O)c(O)c3)O[C@H](COC(=O)/C=C/c3ccc(O)c(O)c3)[C@H]2O)[C@H](O)[C@H](O)[C@H]1O [ISOACTEOSIDE]	µM	5.3
COc1cc(C2Oc3cc([C@H]4Oc5cc(O)cc(O)c5C(=O)[C@@H]4O)ccc3OC2CO)ccc1O (some centres undefined) [SILIBININ]	µM	38.8
C[C@H]1O[C@H](O[C@@H]2[C@@H](O)[C@H](OCCc3ccc(O)c(O)c3)O[C@H](CO[C@H]3O[C@@H](CO)[C@H](O)[C@@H](O)[C@@H]3O)[C@H]2OC(=O)/C=C/c2ccc(O)c(O)c2)[C@@H](O)[C@@H](O)[C@@H]1O [ECHINACOSIDE]	µM	10.2

-- ask Which IC50 value is on record for C[C@@H]1O[C@@H](O[C@@H]2[C@@H](O)[C@H](OCCc3ccc(O)c(O)c3)O[C@H](CO)[C@H]2OC(=O)/C=C/c2ccc(O)c(O)c2)[C@H](O)[C@H](O)[C@H]1O [ACETOSIDE] ?
-- reply 4.6
